Ref: paper PMC11243149

# Tgt: GluA1 (Homo sapiens)
# Construct: expressed in transfected cells; host or cells: HEK293T
# Sequence (P42261 19-906 isoform P42261-2 limits assumed, species assumed): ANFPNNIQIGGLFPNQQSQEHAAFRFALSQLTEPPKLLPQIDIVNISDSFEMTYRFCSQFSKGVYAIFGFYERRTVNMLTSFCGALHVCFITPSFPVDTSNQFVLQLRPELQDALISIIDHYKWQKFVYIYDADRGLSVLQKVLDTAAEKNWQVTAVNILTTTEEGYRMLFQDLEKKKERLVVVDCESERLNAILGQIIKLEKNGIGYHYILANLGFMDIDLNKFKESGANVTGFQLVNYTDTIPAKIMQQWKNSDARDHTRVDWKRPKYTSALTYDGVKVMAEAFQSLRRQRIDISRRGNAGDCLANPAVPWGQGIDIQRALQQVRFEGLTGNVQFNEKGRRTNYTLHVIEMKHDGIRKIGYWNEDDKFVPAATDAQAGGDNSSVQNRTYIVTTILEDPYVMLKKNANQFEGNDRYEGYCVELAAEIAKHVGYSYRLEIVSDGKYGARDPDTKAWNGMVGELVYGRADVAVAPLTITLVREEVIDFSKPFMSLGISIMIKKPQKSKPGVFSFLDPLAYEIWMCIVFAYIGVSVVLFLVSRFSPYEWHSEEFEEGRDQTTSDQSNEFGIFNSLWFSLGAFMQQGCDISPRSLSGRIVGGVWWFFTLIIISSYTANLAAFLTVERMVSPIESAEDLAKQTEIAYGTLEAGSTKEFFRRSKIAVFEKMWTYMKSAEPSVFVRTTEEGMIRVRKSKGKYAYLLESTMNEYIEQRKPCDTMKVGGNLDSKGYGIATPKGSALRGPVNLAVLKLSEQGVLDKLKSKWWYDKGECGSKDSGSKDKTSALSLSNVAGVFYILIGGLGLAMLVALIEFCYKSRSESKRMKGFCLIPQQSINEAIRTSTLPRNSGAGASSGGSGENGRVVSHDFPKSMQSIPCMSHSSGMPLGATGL
# Test details: Whole-cell patch-clamp recordings of homomeric GluA1 AMPAR in transfected HEK293T cells
# Type: cell-based
# Test context: GluA1; 10 mM glutamate alone after 20 s wash following the TC compound; n = 10
Parameter measured: Amplitude, applying glutamate alone after TC compound (pA)

• COc1ccc(-c2nc(C(=O)Nc3cc(OC)c(OC)c(OC)c3)cs2)cc1 = 841
• COc1ccc(-c2nc(C(=O)Nc3ccc(OC)c(OC)c3)cs2)cc1 = 848
• COc1ccc(-c2nc(C(=O)Nc3ccccc3)cs2)cc1 = 799
• COc1ccc(-c2nc(C(=O)Nc3ccc(C(C)(C)C)cc3)cs2)cc1 = 816
